- Tested on: N140
- assay.comment: qHTS profiling for inhibitors of Plasmodium falciparum proliferation (AID 504749); further: nearly all actives have a fitted effect of over 60% in size
- assay.setup: P. falciparum in erythrocytes, SYBR Green DNA, 72 h; series mostly up to 28.7 µM
- Procedure: NIH National Institute of Allergy and Infectious Diseases [NIAID] NIH Chemical Genomics Center [NCGC] […] Because mature erythrocytes lack DNA, only Plasmodium-derived DNA is detected. NCGC Assay Protocol Summary: The SYBR Green viability assay was adapted from a method described previously (Plouffe et al., 2008). […] The following morning, fluorescence intensity at 485(14) nm excitation and 535(25) nm emission wavelengths was measured on an EnVision (Perkin Elmer) plate reader. […]
Results filed as inconclusive are left out. Activity calls are given as the source filed them. The call rests on the fitted dose curve; in most records, active means well fitted inhibition curve with a large enough effect; inconclusive means small, poorly fitted or top-dose-only effect; inactive means flat fitted curve, though single readings scatter.
Entry note: the call must match one of T for active, F for inactive

Please let me know the test result on file for CCC1(C)CC(=O)NC(=O)C1 .
F

Please let me know the test result on file for O=[N+]([O-])C(Br)(CO)CO .
F

Please let me know the test result on file for O=c1[nH]cc(N(CCCl)CCCl)c(=O)[nH]1 .
F

Please let me know the test result on file for O=C1CCCCC1CN1CCCCC1 (stereo not given) .
F

Please let me know the test result on file for c1ccc(C2(N3CCCC3)CCCCC2)cc1 .
T
